Values were extracted from patent US20160193316A1.

DR4w4 binding information for assorted sequences
molecular target: DRB1*0401 (DR4w4) (Homo sapiens, UniProt P01903+P01911, A100K/A169T/F76Y/I96L/K127E/L162R/M171V/N62H/P40V/Q125Y/R42H/S133A/S149N/S66Y/V115G/V209L/W38E); construct: endogenous in cells; host or cells: Preiss; assay: HLA class II peptide binding assay; settings: DR3a motif peptides; unit not given; exemplary 15-mer containing the core sequence
Sequence (P01903 26-254 partner, other chains not shown): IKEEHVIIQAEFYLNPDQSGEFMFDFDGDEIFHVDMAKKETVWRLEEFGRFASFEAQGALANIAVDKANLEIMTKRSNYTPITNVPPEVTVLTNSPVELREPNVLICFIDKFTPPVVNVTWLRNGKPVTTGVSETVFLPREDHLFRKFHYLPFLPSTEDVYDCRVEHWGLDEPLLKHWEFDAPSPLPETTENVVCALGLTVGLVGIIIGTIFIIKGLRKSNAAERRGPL
When you answer, write just the number.

Solved entries (count: 7):
# inputSequence, DR4w4 binding information
data = [
    ("IVDELSEDI", 0.0027),
    ("ILTDGIPDS", 0.3600),
    ("VPSDVPKNP", -0.0130),
    ("VWDEWSPCS", -0.0009),
    ("INRENANQL", 0.0011),
    ("VCNDEVDLY", -0.0014),
    ("LLMDCSGSI", 0.0340),
]

# context switch: different sequence, same DR4w4 binding information
**Query** Item VEVEKTASC has what recorded DR4w4 binding information?
**Result** 0.0030

====

target: HLA-A*1101 (Homo sapiens, UniProt P04439, A114D/D185E/E176A/F33Y/L180Q/S129P/T187R); assay: HLA class I peptide binding assay; conditions: Table XVII, Malaria A11 motif peptides; HLA-A*1101 binding value, unit not given
measurementKind: A*1101 binding information
When you answer, write just the number.

# inputSequence, testedOn, A*1101 binding information
data = [
    ("VLYNTEXGRH", "HLA-A*1101 (Homo sapiens, UniProt P04439, A114D/D185E/E176A/F33Y/L180Q/S129P/T187R)", 0.0002),
    ("DGNNEDNEX", "HLA-A*1101 (Homo sapiens, UniProt P04439, A114D/D185E/E176A/F33Y/L180Q/S129P/T187R)", 0.0002),
    ("LGGVGLVLY", "HLA-A*1101 (Homo sapiens, UniProt P04439, A114D/D185E/E176A/F33Y/L180Q/S129P/T187R)", 0.0002),
    ("EMADCTNK", "HLA-A*1101 (Homo sapiens, UniProt P04439, A114D/D185E/E176A/F33Y/L180Q/S129P/T187R)", 0.0002),
    ("FVEALFQEY", "HLA-A*1101 (Homo sapiens, UniProt P04439, A114D/D185E/E176A/F33Y/L180Q/S129P/T187R)", 0.0003),
]

**Query** Item GLVLYNIEK has what recorded A*1101 binding information?
**Result** 0.0055

====

molecular target: DRB1*0405 (DR4w15) (Homo sapiens, UniProt P01903+P01911, A100R/A169T/D86S/F76Y/I96L/K127E/L162R/M171V/N62H/P40V/Q125Y/R42H/S133A/S149N/S66Y/V115G/V209L/W38E); construct: endogenous in cells; host or cells: KT3; experiment: HLA class II peptide binding assay; conditions: DR3a motif peptides; unit not given; exemplary 15-mer containing the core sequence
Label class 1 when DR4w15 binding information < 0.001; otherwise class 0.

# inputSequence, categoryLabel
data = [
    ("VCNDEVDLY", "class 1"),
    ("LLMDCSGSI", "class 0"),
    ("IVDELSEDI", "class 0"),
    ("ILTDGIPDS", "class 1"),
    ("VEVEKTASC", "class 1"),
]

**Query** Quick check: does VWDEWSPCS have DR4w15 binding information under 0.001?
**Result** class 1

====

target: DRB1*0301 (DR3) (Homo sapiens, UniProt P01903+P01911, A100K/A102G/A103R/A169T/F55Y/I96L/K41T/L162R/M171V/P40S/Q125H/Q178H/Q39Y/R42S/S66N/T106N/T262R/W38E/Y61H); construct: endogenous in cells; host or cells: MAT; assay: HLA class II peptide binding assay (pH 4.5); conditions: Malaria DR3b motif peptides; unit not given
measurementKind: DR3 binding information
When you answer, write just the number.

Solved entries (count: 5):
# inputSequence, measurementKind, observed
records = [
    ("VLDNERKQS", "DR3 binding information", -0.0130),
    ("FKPNDKSLY", "DR3 binding information", 0.1700),
    ("INEEKHEKK", "DR3 binding information", 0.0420),
    ("VEVNKRKSK", "DR3 binding information", 0.0880),
    ("LNKEGKLIE", "DR3 binding information", -0.0140),
]

# context switch: different sequence, same DR3 binding information
**Query** Item FLVNGRDVQ has what recorded DR3 binding information?
**Result** -0.0033

====

A*1101 binding information for assorted substances
target: HLA-A*1101 (Homo sapiens, UniProt P04439, A114D/D185E/E176A/F33Y/L180Q/S129P/T187R); assay: HLA class I peptide binding assay; conditions: Table XVII, malaria A11 motif peptides; binding value unit not given
When you answer, write just the number.

Solved entries (count: 9):
# substance, observed
records = [
    ("PSDGKCNLY", 0.0002),
    ("SLYDEHRKY", 0.0045),
    ("HORNNENRSY", 0.0002),
    ("VDELSEDTK", 0.0002),
    ("QCEEERCPPK", 0.0002),
    ("FDEILGEEDK", 0.0002),
    ("SVTCGKOTFt (SVTCGKGTR)", 0.0009),
    ("CCKGIRSRKR", 0.0002),
    ("NSEDRETPPH", 0.0002),
]

# context switch: different substance, same A*1101 binding information
**Query** Item CSVTCGKGTR has what recorded A*1101 binding information?
**Result** 0.0002

====

target: DRB1*1501 (DR2w2β1) (Homo sapiens, UniProt P01903+P01911); construct: expressed in transfected cells; host or cells: L466.1 (fibroblasts); assay: HLA class II peptide binding assay; details: Table XIXb; DR2w2β1
Label t when DR2w2β1 binding data < 0.0003; otherwise f.

# inputSequence, categoryLabel
records = [
    ("LAILSVSSF", "f"),
    ("LATSVLAGL", "f"),
    ("LALFFIIFN", "f"),
    ("FYFILVNLL", "f"),
    ("YQNNIVDEI", "t"),
]

**Query** Quick check: does LIFFDLFLV have DR2w2β1 binding data under 0.0003?
**Result** f

**Query** Quick check: does VVPGAATPY have DR2w2β1 binding data under 0.0003?
**Result** f

**Query** Quick check: does LGNVSTVLL have DR2w2β1 binding data under 0.0003?
**Result** f

**Query** Quick check: does WVNHAVPLA have DR2w2β1 binding data under 0.0003?
**Result** f

**Query** Quick check: does VSTVLLGGV have DR2w2β1 binding data under 0.0003?
**Result** t

====

molecular target: HLA-A*0301 (Homo sapiens); construct: endogenous in cells; host or cells: GM3107; experiment: HLA class I peptide binding assay; settings: Table XVI, Malaria A3 motif peptides; HLA-A*0301 binding value, unit not given
measurementKind: A*0301 (binding information)
When you answer, write just the number.

Solved entries (count: 2):
# inputSequence, observed
records = [
    ("RINEEKNEKK", 0.0024),
    ("NSRNRKNEEK", 0.0004),
]

**Query** Item KSLYDEIHK has what recorded A*0301 (binding information)?
**Result** 0.0005

**Query** Item VDESEDITK has what recorded A*0301 (binding information)?
**Result** 0.0002

**Query** Item ISHEKTNR has what recorded A*0301 (binding information)?
**Result** 0.0001

**Query** Item KGKKYEKIK has what recorded A*0301 (binding information)?
**Result** 0.0002

**Query** Item FLKENKLNK has what recorded A*0301 (binding information)?
**Result** 0.0260

**Query** Item LSFINSYEKTK has what recorded A*0301 (binding information)?
**Result** 0.0004

====

biological target: DRB1*0405 (DR4w15) (Homo sapiens, UniProt P01903+P01911, A100R/A169T/D86S/F76Y/I96L/K127E/L162R/M171V/N62H/P40V/Q125Y/R42H/S133A/S149N/S66Y/V115G/V209L/W38E); construct: endogenous in cells; host or cells: KT3; test: HLA class II peptide binding assay; settings: Table XIXb; DR4w15
Classification field: enter true (1) for DR4w15 binding data values not below -0.001, false (0) for values below it.

Would you please look over these solved cases?
# inputSequence, categoryLabel
rows = [
    ("LALFFIIFN", "true (1)"),
    ("LTDGIPDSI", "false (0)"),
    ("LGNVSTVLL", "true (1)"),
]

**Query** For this sequence, is measured DR4w15 binding data -0.001 or higher? LIFFDLFLV
**Result** true (1)

**Query** For this sequence, is measured DR4w15 binding data -0.001 or higher? IAGGLALLA
**Result** true (1)

**Query** For this sequence, is measured DR4w15 binding data -0.001 or higher? LTMSNVKNV
**Result** true (1)
